system: MDA-MB-468; experiment: phospho-S6 immunofluorescence (DAPI-normalised), per-plate z-score; higher = higher phospho-S6 signal (less pathway suppression); conditions: co-treatment: vehicle; 24 h
Structures can show the parent of a compound that is named as a salt.
outcome-measure: phospho-S6 immunofluorescence (z-score)

The cases that follow already have their phospho-S6 immunofluorescence (z-score) on record.
>  <compound>
Clc1cccc(Cl)c1NC1=NCCN1 [Clonidine (hydrochloride)] (compound 10 µM)

>  <phospho-S6 immunofluorescence (z-score)>
1.03

$$$$
>  <compound>
CCCN(CCc1cccs1)C1CCc2c(O)cccc2C1 (racemic) [rac-Rotigotine (Hydrochloride)] (compound 10 µM)

>  <phospho-S6 immunofluorescence (z-score)>
-0.11

$$$$
>  <compound>
CC(C)(O)c1ccccc1CC[C@@H](SCC1(CC(=O)O)CC1)c1cccc(/C=C/c2ccc3ccc(Cl)cc3n2)c1 [Montelukast (sodium)] (compound 10 µM)

>  <phospho-S6 immunofluorescence (z-score)>
1.39

$$$$
>  <compound>
CC(C)(C)NCC(O)COc1cccc2c1CCC(=O)N2 (configuration not stated) [Carteolol (hydrochloride)] (compound 10 µM)

>  <phospho-S6 immunofluorescence (z-score)>
-0.38

$$$$
>  <compound>
CC(=O)[C@H]1CC[C@H]2[C@@H]3CC=C4C[C@@H](O)CC[C@]4(C)[C@H]3CC[C@]12C [Pregnenolone] (compound 10 µM)

>  <phospho-S6 immunofluorescence (z-score)>
0.85

$$$$
>  <compound>
COc1cc2nc(N3CCN(C(=O)C4COc5ccccc5O4)CC3)nc(N)c2cc1OC (configuration not stated) [Doxazosin (mesylate)] (compound 10 µM)

>  <phospho-S6 immunofluorescence (z-score)>
-8.17

$$$$

Now take the following compound into account.
What does the data say about its phospho-S6 immunofluorescence (z-score)? Entry: Cc1ccc(C)c(OCCn2cc(C(=O)O)c3ccccc32)c1 (compound 10 µM)
-0.21

* * *

system: MDA-MB-468; experiment: phospho-S6 immunofluorescence (DAPI-normalised), per-plate z-score; higher = higher phospho-S6 signal (less pathway suppression); conditions: co-treatment: vehicle; 24 h
Counter-ions that a name gives are not always drawn.
The threshold is inclusive: phospho-S6 immunofluorescence (z-score) of exactly -0.1 counts as True; values below receive False.

A selection of reference data follows.
>  <compound>
COc1ccc(CNC(=O)c2cc(-c3cncc(C)c3)ncc2-c2nccs2)nc1OC (compound 10 µM)

>  <cat>
True

$$$$
>  <compound>
CC(C)(C)C1CCC(N(Cc2ccc(C(=O)NCCC(=O)O)cc2)C(=O)Nc2ccc(OC(F)(F)F)cc2)CC1 (centres undefined) (compound 10 µM)

>  <cat>
False

$$$$
>  <compound>
Cc1noc(NS(=O)(=O)c2ccc(N)cc2)c1C [Sulfisoxazole] (compound 10 µM)

>  <cat>
True

$$$$

// inclusive: phospho-S6 immunofluorescence (z-score) at least -0.1? input: N#Cc1ccc2[nH]cc(CCCCN3CCN(c4ccc5oc(C(N)=O)cc5c4)CC3)c2c1 [Vilazodone (Hydrochloride)] (compound 10 µM)
True

// inclusive: phospho-S6 immunofluorescence (z-score) at least -0.1? input: O=c1cc(C(Cl)(Cl)Cl)oc2ccc(Cl)cc12 (compound 10 µM)
True

// inclusive: phospho-S6 immunofluorescence (z-score) at least -0.1? input: CC1(C)O[C@@H]2C[C@H]3[C@@H]4C[C@H](F)C5=CC(=O)C=C[C@]5(C)[C@@]4(F)[C@@H](O)C[C@]3(C)[C@]2(C(=O)CO)O1 [Fluocinolone (Acetonide)] (compound 10 µM)
False

* * *

tested on: MDA-MB-468; assay: phospho-S6 immunofluorescence (DAPI-normalised), per-plate z-score; higher = higher phospho-S6 signal (less pathway suppression); settings: co-treatment: vehicle; 24 h
Counter-ions that a name gives are not always drawn.
outcome-measure: phospho-S6 immunofluorescence (z-score)
Form field (numeric): enter value without unit.

The cases that follow already have their phospho-S6 immunofluorescence (z-score) on record.
>  <molecule>
CC(C)NCC(O)COc1ccc(CC(N)=O)cc1 (centres undefined) [Atenolol] (compound 10 µM)

>  <phospho-S6 immunofluorescence (z-score)>
0.52

$$$$
>  <molecule>
O=C1CCc2ccc(OCCCCN3CCN(c4cccc(Cl)c4Cl)CC3)cc2N1 [Aripiprazole] (compound 10 µM)

>  <phospho-S6 immunofluorescence (z-score)>
-3.2

$$$$
>  <molecule>
CN(C)CC/C=C1/c2ccccc2COc2ccc(CC(=O)O)cc21 [Olopatadine (hydrochloride)] (compound 10 µM)

>  <phospho-S6 immunofluorescence (z-score)>
-0.35

$$$$

What does the data say about its phospho-S6 immunofluorescence (z-score)? Entry: Cc1[nH]cnc1CN1CCc2c(c3ccccc3n2C)C1=O [Alosetron (Hydrochloride)] (compound 10 µM)
1.01

* * *

Catalogue of compounds with associated phospho-S6 immunofluorescence (z-score)
system: MDA-MB-468; assay: phospho-S6 immunofluorescence (DAPI-normalised), per-plate z-score; higher = higher phospho-S6 signal (less pathway suppression); details: co-treatment: GDC0941 450 nM; 24 h
Counter-ions that a name gives are not always drawn.
Form field (numeric): enter value without unit.

# value lookup — system MDA-MB-468, readout phospho-S6 immunofluorescence (z-score), item C[C@@H]1CCCN1CCc1cc2cc(-c3ccc(C#N)cc3)ccc2o1 (compound 10 µM)
-3.3

# value lookup — system MDA-MB-468, readout phospho-S6 immunofluorescence (z-score), item Cc1ccccc1C(=O)Nc1ccc(C(=O)N2CCCC(N(C)C)c3ccccc32)cc1 (configuration not stated) [Mozavaptan] (compound 10 µM)
-0.25

# value lookup — system MDA-MB-468, readout phospho-S6 immunofluorescence (z-score), item Cc1sc(C)c(C(=O)NC2(c3ccc(C(=O)O)cc3)CC2)c1Cc1ccc(C(F)(F)F)cc1 (compound 10 µM)
-1.42

# value lookup — system MDA-MB-468, readout phospho-S6 immunofluorescence (z-score), item c1ccc2c(CC3=NCCN3)cccc2c1 [Naphazoline (hydrochloride)] (compound 10 µM)
-0.78

# value lookup — system MDA-MB-468, readout phospho-S6 immunofluorescence (z-score), item O=c1ccn([C@@H]2O[C@H](COP(=O)(O)OP(=O)(O)OP(=O)(O)OP(=O)(O)OC[C@H]3O[C@@H](n4ccc(=O)[nH]c4=O)[C@H](O)[C@@H]3O)[C@@H](O)[C@H]2O)c(=O)[nH]1 [Diquafosol (tetrasodium)] (compound 10 µM)
0.01

# value lookup — system MDA-MB-468, readout phospho-S6 immunofluorescence (z-score), item OCCOCCN1CCN(C2=Nc3ccccc3Sc3ccccc32)CC1 [Quetiapine] (compound 10 µM)
0.95

# value lookup — system MDA-MB-468, readout phospho-S6 immunofluorescence (z-score), item CC(C)(C)NCC(O)COc1cccc2c1CCC(=O)N2 (configuration not stated) [Carteolol (hydrochloride)] (compound 10 µM)
0.64

* * *

system: MDA-MB-468; assay: phospho-S6 immunofluorescence (DAPI-normalised), per-plate z-score; higher = higher phospho-S6 signal (less pathway suppression); conditions: co-treatment: lapatinib 1 uM; 24 h
Where a name gives a salt, the structure may show the parent alone.
outcome-measure: phospho-S6 immunofluorescence (z-score)

The cases that follow already have their phospho-S6 immunofluorescence (z-score) on record.
>  <compound>
O=C(CCCN1CCC(O)(c2ccc(Cl)cc2)CC1)c1ccc(F)cc1 [Haloperidol] (compound 10 µM)

>  <phospho-S6 immunofluorescence (z-score)>
-0.01

$$$$
>  <compound>
CC(=O)OCC(=O)[C@@]1(O)CC[C@H]2[C@@H]3CCC4=CC(=O)CC[C@]4(C)[C@H]3C(=O)C[C@@]21C [Cortisone (acetate)] (compound 10 µM)

>  <phospho-S6 immunofluorescence (z-score)>
1.06

$$$$
>  <compound>
CCCC1O[C@@H]2C[C@H]3[C@@H]4CCC5=CC(=O)C=C[C@]5(C)[C@H]4[C@@H](O)C[C@]3(C)[C@]2(C(=O)CO)O1 (stereo not given in full) [Budesonide] (compound 10 µM)

>  <phospho-S6 immunofluorescence (z-score)>
-0.12

$$$$
>  <compound>
COc1ccc2cccc(CCNC(C)=O)c2c1 [Agomelatine] (compound 10 µM)

>  <phospho-S6 immunofluorescence (z-score)>
0.54

$$$$
>  <compound>
CC(C)OC(=O)N1CCC(Oc2ncnc3c2cnn3-c2ccc(S(C)(=O)=O)cc2F)CC1 (compound 10 µM)

>  <phospho-S6 immunofluorescence (z-score)>
-0.15

$$$$
>  <compound>
CCOC(=O)c1ccc(-n2cc(Cc3cnc(OCC)nc3)c(=O)nc2SCc2ccc(F)cc2)cc1 (compound 10 µM)

>  <phospho-S6 immunofluorescence (z-score)>
-3.79

$$$$
>  <compound>
Cc1noc(NS(=O)(=O)c2ccc(N)cc2)c1C [Sulfisoxazole] (compound 10 µM)

>  <phospho-S6 immunofluorescence (z-score)>
-0.03

$$$$
>  <compound>
CC(COc1ccccc1)N(CCCl)Cc1ccccc1 (stereo not given) [Phenoxybenzamine (hydrochloride)] (compound 10 µM)

>  <phospho-S6 immunofluorescence (z-score)>
-0.04

$$$$
>  <compound>
Cn1c(=O)c2nc[nH]c2n(C)c1=O [Theophylline] (compound 10 µM)

>  <phospho-S6 immunofluorescence (z-score)>
0.16

$$$$
>  <compound>
O=C(NCC(=O)N1CC[C@H](N[C@H]2CC[C@@](O)(c3ccc(-c4ncccn4)cn3)CC2)C1)c1cccc(C(F)(F)F)c1 (compound 10 µM)

>  <phospho-S6 immunofluorescence (z-score)>
-0.77

$$$$

Now take the following compound into account.
What does the data say about its phospho-S6 immunofluorescence (z-score)? Entry: O=C1NCC2(CCN(CCc3ccccc3)CC2)O1 [Fenspiride (Hydrochloride)] (compound 10 µM)
0.67
